- Experimental parameters: in n-hexane, 293.15 K
Parameter: solubility (mole fraction)
Form: value (number only, do not type unit).

Indicate its recorded solubility (mole fraction); the molecule in question is OC(CN1CCN(CC(O)(Cn2cncn2)c2ccc(F)cc2F)CC1)(Cn1cncn1)c1ccc(F)cc1F (stereo unspecified)
9.77e-07

---

- Experimental parameters: in n-hexane, 313.15 K
Parameter: solubility (mole fraction)
Give the figure by itself; no unit, no explanation.

# return recorded solubility (mole fraction) for entry OC(CN1CCN(CC(O)(Cn2cncn2)c2ccc(F)cc2F)CC1)(Cn1cncn1)c1ccc(F)cc1F (stereo unspecified)
1.92e-06
